- target_or_system: UniProt:Q06124
- assay_explanation: SHP-2 biochemical DiFMUP pseudosubstrate-fluorogenic assay
- test_context: 0.2 nM SHP-2, 1 μM IRS-1 activator peptide, 50 μM DiFMUP; read-out: SHP2 IC50
pIC50: −log10 of the molar value.
observation_type: pIC50

Consider the following illustrative entries.
# compound, pIC50
data = [
    ("Nc1nccc(Sc2cnc(N3CCC4(CC3)Cc3ncccc3[C@H]4N)n3ccnc23)c1Cl [Example 147]", 8.32),
    ("C[C@@H]1OCC2(CCN(c3ncc(Sc4ccnc5cc(Cl)ccc45)c4nccn34)CC2)[C@@H]1N [Example 134]", 8.05),
    ("C[C@@H]1OCC2(CCN(c3ncc(Sc4ccnc5c(C(=O)O)cccc45)c4nccn34)CC2)[C@@H]1N [Example 110]", 6.72),
    ("C[C@@H]1OCC2(CCN(c3ncc(Sc4ccnc5cc(C#N)ccc45)c4nccn34)CC2)[C@@H]1N [Example 125]", 7.29),
]

[1] NC1Cc2ccccc2C12CCN(c1ncc(Sc3cccc(Cl)c3Cl)c3nccn13)CC2 (centres unmarked) [Example 124]
[2] N[C@@H]1c2cccnc2CC12CCN(c1ncc(Sc3cccc(Cl)c3Cl)c3nccn13)CC2 [Example 146]
[3] N[C@@H]1CCCC12CCN(c1ncc(Sc3cncc4ccccc34)c3nccn13)CC2 [Example 70]
Please order the records by their reported pIC50, lowest number first. In plain terms: list the labels in the order you were asked to.
3, 1, 2
(3: 6.17, 1: 7.64, 2: 8.77)

###

- target_or_system: SHP-2 full length protein (Homo sapiens (Human))
- assay_explanation: SHP-2 biochemical DiFMUP pseudosubstrate-fluorogenic assay
- test_context: 0.2 nM SHP-2, 1 μM IRS-1 activator peptide, 50 μM DiFMUP; read-out: SHP2 IC50
observation_type: IC50 (nM)

[A] C[C@@H]1OCC2(CCN(c3ncc(Sc4ccnc5ccc(F)cc45)c4nccn34)CC2)[C@@H]1N
[B] Cc1nnc2c(Sc3cccc(Cl)c3Cl)cnc(N3CCC(C)(CN)CC3)n12
Short answer wanted: higher IC50, A or B ? Kindly give the label for the entry you pick.
B
(B: 800 nM, A: 8.4 nM)

###

- target_or_system: SHP-2 full length protein (Homo sapiens (Human))
- assay_explanation: SHP-2 biochemical DiFMUP pseudosubstrate-fluorogenic assay
- test_context: 0.2 nM SHP-2, 1 μM IRS-1 activator peptide, 50 μM DiFMUP; read-out: SHP2 IC50
pIC50: −log10 of the molar value.
observation_type: pIC50

# chem_smiles, pIC50
rows = [
    ("C[C@@H]1OCC2(CCN(c3ncc(Sc4nccc5ccccc45)c4nccn34)CC2)[C@@H]1N", 6.26),
    ("C[C@@H]1OCC2(CCN(c3ncc(Sc4cc(N)ncc4C(F)(F)F)c4nccn34)CC2)[C@@H]1N", 8.23),
    ("C[C@@H]1OCC2(CCN(c3ncc(Sc4cccc5nc(N)sc45)c4nccn34)CC2)[C@@H]1N", 8.17),
]

[I] C[C@@H]1OCC2(CCN(c3ncc(Sc4ccnc5c4CCC5)c4nccn34)CC2)[C@@H]1N
[II] C[C@@H]1OCC2(CCN(c3ncc(Sc4ccnc5c(Br)cccc45)c4nccn34)CC2)[C@@H]1N
[III] Cc1nc(N2CCC3(CCC[C@H]3N)CC2)n2ccnc2c1-c1cc(N)ncc1Cl
[IV] N[C@@H]1c2ccccc2CC12CCN(c1ncc(Sc3cccc(Cl)c3Cl)c3nccn13)CC2
Arrange the 4 compounds by rising pIC50, starting with the smallest. Output spec: labels arranged per the requested ranking.
III, I, II, IV
